Cited source for all entries: the kinase profiling compilation of Christmann-Franck et al. (2016)

Target: DAPK2 (human) (UniProt Q9UIK4)
Sequence (Q9UIK4 whole entry, looked up): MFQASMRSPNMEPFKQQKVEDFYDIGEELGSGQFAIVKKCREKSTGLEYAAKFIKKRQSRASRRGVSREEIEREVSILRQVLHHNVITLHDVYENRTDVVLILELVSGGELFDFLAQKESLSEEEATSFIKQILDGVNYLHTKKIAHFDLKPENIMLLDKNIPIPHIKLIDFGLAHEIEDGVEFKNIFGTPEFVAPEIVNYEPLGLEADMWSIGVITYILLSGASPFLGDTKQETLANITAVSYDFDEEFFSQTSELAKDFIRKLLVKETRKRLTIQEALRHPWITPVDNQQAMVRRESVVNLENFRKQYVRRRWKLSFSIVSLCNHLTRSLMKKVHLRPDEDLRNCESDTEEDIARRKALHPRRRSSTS
Experiment: radiometric filter-binding kinase assay, Kinase HotSpot
Settings: compound 0.5 µM; ATP 10 µM
Measured residual activity values are reported for all entries that follow.
The reply should contain only the number, in %.

{"COMPOUND": "Oc1ccc(-c2nc(-c3ccc(F)cc3)c(-c3ccncc3)[nH]2)cc1", "SUBJECT OF TEST": "DAPK2 (human) (UniProt Q9UIK4)", "residual activity / %": 96.8}
{"COMPOUND": "O=C1Cc2c([nH]c3ccc([N+](=O)[O-])cc23)-c2ccccc2N1", "SUBJECT OF TEST": "DAPK2 (human) (UniProt Q9UIK4)", "residual activity / %": 97.2}
{"COMPOUND": "C#Cc1cccc(Nc2ncnc3cc(OCCOC)c(OCCOC)cc23)c1", "SUBJECT OF TEST": "DAPK2 (human) (UniProt Q9UIK4)", "residual activity / %": 92.5}
{"COMPOUND": "CS(=O)c1ccc(-c2nc(-c3ccc(F)cc3)c(-c3ccncc3)[nH]2)cc1 (stereo unspecified)", "SUBJECT OF TEST": "DAPK2 (human) (UniProt Q9UIK4)", "residual activity / %": 102}
{"COMPOUND": "CCN1/C(=C/C(C)=O)Sc2ccc(OC)cc21", "SUBJECT OF TEST": "DAPK2 (human) (UniProt Q9UIK4)", "residual activity / %": 90.3}

The recorded residual activity with DAPK2 (human) (UniProt Q9UIK4) for `Cc1cc2ncc(-c3ccccc3)nc2cc1C` was 92.6

residual activity of `Nc1nc(Nc2ccc(S(N)(=O)=O)cc2)nn1C(=O)c1c(F)cccc1F` , assay on DAPK2 (human) (UniProt Q9UIK4), is 107

Item `Cc1ccc(NC(=O)c2ccc(CN3CCN(C)CC3)cc2)cc1Nc1nc(-c2cccnc2)cs1` ; assay system DAPK2 (human) (UniProt Q9UIK4); residual activity reported as 104

Form field residual activity for item `CCCNC(=O)Nc1ccc(Oc2ncnc3cc(OC)c(OC)cc23)cc1Cl` on DAPK2 (human) (UniProt Q9UIK4): 108

// returns residual activity for `Clc1ccc(Nc2nnc(Cc3ccncc3)c3ccccc23)cc1` with DAPK2 (human) (UniProt Q9UIK4); value = 91.7

residual activity on DAPK2 (human) (UniProt Q9UIK4) for `CC(C)(C)c1nc2c3ccc(F)cc3c3c(=O)[nH]ccc3c2[nH]1` is 18

Readout residual activity for CSc1nc(-c2ccc(F)cc2)c(-c2ccnc(NC(C)c3ccccc3)c2)[nH]1 (stereo unspecified) , test system DAPK2 (human) (UniProt Q9UIK4), was 101

DAPK2 (human) (UniProt Q9UIK4) assay, compound `O=C1Nc2ccccc2/C1=C\c1c(Cl)[nH]c2ccccc12` , recorded residual activity = 96.8
